Ref: patent US20260028354A1

EXPERIMENTAL_SYSTEM: ER in T47D cells (Homo sapiens (Human), UniProt P03372)
Sequence (P03372 whole entry): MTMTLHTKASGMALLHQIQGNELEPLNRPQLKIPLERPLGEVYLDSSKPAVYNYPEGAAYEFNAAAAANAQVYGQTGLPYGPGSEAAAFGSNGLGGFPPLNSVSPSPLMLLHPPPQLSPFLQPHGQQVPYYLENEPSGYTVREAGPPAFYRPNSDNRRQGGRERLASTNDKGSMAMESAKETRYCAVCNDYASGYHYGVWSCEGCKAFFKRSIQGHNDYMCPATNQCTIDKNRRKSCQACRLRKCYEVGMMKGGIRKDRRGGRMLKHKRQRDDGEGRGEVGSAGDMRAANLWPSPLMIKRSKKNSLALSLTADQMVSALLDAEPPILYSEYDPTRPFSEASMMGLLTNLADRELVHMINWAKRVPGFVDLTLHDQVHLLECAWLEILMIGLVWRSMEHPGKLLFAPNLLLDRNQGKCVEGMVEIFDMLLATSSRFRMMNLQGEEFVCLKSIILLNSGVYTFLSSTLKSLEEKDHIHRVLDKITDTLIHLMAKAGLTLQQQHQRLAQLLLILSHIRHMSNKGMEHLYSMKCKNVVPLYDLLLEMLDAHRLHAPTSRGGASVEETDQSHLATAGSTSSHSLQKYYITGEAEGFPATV
PROTOCOL_TEXT: In-cell Western (ICW) ER degradation assay in T47D cells
Format: cell-based
TEST_SETTINGS: maximal ER degradation, 16 hrs treatment, read-out: T47D Dmax
Structures can show the parent of a compound that is named as a salt.
QUANTITY_MEASURED: Dmax

Dear colleague, please send me the reported Dmax for `COc1cc(N2CCC(CN3CCN4c5ccc(C(=O)N[C@H]6CCC(=O)NC6=O)nc5OC[C@H]4C3)CC2)c(F)cc1[C@@H]1c2ccc(O)cc2CC[C@@H]1c1ccccc1` when you can. > 75%

Dear colleague, please send me the reported Dmax for O=C1CC[C@H](Nc2ccc(C3CCN(C[C@H]4COC5(CCN(c6ccc([C@@H]7c8ccc(O)cc8CC[C@@H]7c7ccccc7)cc6)CC5)C4)CC3)cc2)C(=O)N1 (single isomer, unassigned) when you can. < 25%

Dear colleague, please send me the reported Dmax for O=C1CC[C@@H](Nc2ccc(C3CCN(C[C@H]4COC5(CCN(c6ccc([C@@H]7c8ccc(O)cc8CC[C@@H]7c7ccccc7)cc6)CC5)C4)CC3)cc2)C(=O)N1 (single isomer, unassigned) when you can. < 25%

Dear colleague, please send me the reported Dmax for O=C1CC[C@H](NC(=O)c2ccc3c(n2)OC[C@H]2CN(CC4CC5(CCN(c6ccc([C@H]7c8ccc(O)cc8CC[C@H]7c7ccccc7)cn6)CC5)C4)CCN32)C(=O)N1 (single isomer, unassigned) when you can. < 25%

Dear colleague, please send me the reported Dmax for COc1cc(N2CCC(CN3CCC(c4ccc(N[C@@H]5CCC(=O)NC5=O)cc4F)CC3)CC2)ccc1[C@H]1c2ccc(O)cc2CC[C@H]1c1ccccc1 (stereo in doubt) [Compound A84, formate] when you can. 25 to 50%

Dear colleague, please send me the reported Dmax for O=C1CC[C@H](NC(=O)c2ccc3c(n2)OC[C@H]2CN(C[C@H]4COC5(CCN(c6ccc([C@H]7c8ccc(O)cc8CC[C@H]7c7ccccc7)cc6)CC5)C4)CCN32)C(=O)N1 (single isomer, unassigned) when you can. 25 to 50%

Dear colleague, please send me the reported Dmax for O=C1CC[C@@H](Nc2ccc(C3CCN(C[C@@H]4COC5(CCN(c6ccc([C@@H]7c8ccc(O)cc8CC[C@@H]7c7ccccc7)cc6)CC5)C4)CC3)c(F)c2)C(=O)N1 (single isomer, unassigned) when you can. 25 to 50%

Dear colleague, please send me the reported Dmax for O=C1CC[C@H](NC(=O)c2ccc3c(n2)OC[C@H]2CN(CC4CC5(CCN(c6ccc([C@@H]7c8ccc(O)cc8CC[C@@H]7c7ccccc7)cn6)CC5)C4)CCN32)C(=O)N1 (single isomer, unassigned) when you can. > 75%

Dear colleague, please send me the reported Dmax for O=C1CC[C@H](Nc2ccc(C3CCN(C[C@@H]4COC5(CCN(c6ccc([C@@H]7c8ccc(O)cc8CC[C@@H]7c7ccccc7)cc6)CC5)C4)CC3)cc2)C(=O)N1 (single isomer, unassigned) when you can. 25 to 50%

----------
EXPERIMENTAL_SYSTEM: ER in MCF-7 cells (Homo sapiens (Human))
PROTOCOL_TEXT: In-cell Western (ICW) ER degradation assay in MCF-7 cells
Type: cell-based
TEST_SETTINGS: MCF7, MCF-7, maximal ER degradation, 16 hrs treatment; read-out: MCF7 Dmax
QUANTITY_MEASURED: Dmax

Dear colleague, please send me the reported Dmax for O=C1CC[C@H](N2Cc3c(ccc4c3OC[C@H]3CN(CC5CCC6(CC5)CN(c5ncc([C@H]7c8ccc(O)cc8CC[C@H]7c7ccccc7)cn5)C6)CCN43)C2=O)C(=O)N1 (single isomer, unassigned) [Compound A155] when you can. 25 to 50%

Dear colleague, please send me the reported Dmax for O=C1CC[C@H](N2Cc3cc4c(cc3C2=O)OC[C@H]2CN(C[C@H]3COC5(CCN(c6ccc([C@H]7c8ccc(O)cc8CC[C@H]7c7ccccc7)cc6)CC5)C3)CCN42)C(=O)N1 (single isomer, unassigned) [Compound A19] when you can. 50 to 75%

Dear colleague, please send me the reported Dmax for COc1cc(N2CCC(CN3CCN4c5cc6c(cc5OC[C@@H]4C3)C(=O)N([C@H]3CCC(=O)NC3=O)C6)CC2)c(F)cc1[C@@H]1c2ccc(O)cc2CC[C@@H]1c1ccccc1 [Compound A91] when you can. > 75%

Dear colleague, please send me the reported Dmax for O=C1CC[C@H](N2Cc3cc4c(cc3C2=O)OC[C@H]2CN(C[C@H]3COC5(CCN(c6ccc([C@@H]7c8ccc(O)cc8CC[C@@H]7c7ccccc7)cc6)CC5)C3)CCN42)C(=O)N1 (single isomer, unassigned) [Compound A17] when you can. 25 to 50%

----------
Please go through the items and note down their Dmax.
EXPERIMENTAL_SYSTEM: ER in MCF-7 cells (Homo sapiens (Human), UniProt P03372)
Sequence (P03372 whole entry): as above
PROTOCOL_TEXT: In-cell Western (ICW) ER degradation assay in MCF-7 cells
Format: cell-based
TEST_SETTINGS: MCF7, read-out: MCF7 Dmax, MCF-7, maximal ER degradation, 16 hrs treatment

Dear colleague, please send me the reported Dmax for COc1cc(N2CCC3(CC2)CC(CN2CCN4c5ccc6c(c5OC[C@H]4C2)CN([C@H]2CCC(=O)NC2=O)C6=O)CO3)ccc1[C@H]1c2ccc(O)cc2CC[C@H]1c1ccccc1 (single isomer, unassigned) when you can. 50 to 75%

Dear colleague, please send me the reported Dmax for `O=C1CC[C@H](N2Cc3c(ccc4c3OCC43CCN(CC4CC5(CCN(c6ccc([C@@H]7c8ccc(O)cc8CC[C@@H]7c7ccccc7)cc6)CC5)C4)CC3)C2=O)C(=O)N1` when you can. > 75%

Dear colleague, please send me the reported Dmax for `COc1cc(N2CCC(CN3CCC4(CC3)COc3c4ccc4c3CN([C@H]3CCC(=O)NC3=O)C4=O)CC2)ccc1[C@H]1c2ccc(O)cc2CC[C@H]1c1ccccc1` when you can. 50 to 75%

Dear colleague, please send me the reported Dmax for `O=C1CC[C@H](N2Cc3c(ccc4c3OCC43CCN(C4CN(CCOc5ccc([C@@H]6c7ccc(O)cc7CC[C@@H]6c6ccccc6)cc5)C4)CC3)C2=O)C(=O)N1` when you can. 50 to 75%

Dear colleague, please send me the reported Dmax for `COc1cc(N2CC3(CC(CN4CCC5(CC4)COc4c5ccc5c4CN([C@H]4CCC(=O)NC4=O)C5=O)C3)C2)c(F)cc1[C@@H]1c2ccc(O)cc2CC[C@@H]1c1ccccc1` when you can. 50 to 75%

Dear colleague, please send me the reported Dmax for `COc1cc(N2CCC(CN3CCC4(CC3)COc3c4ccc4c3CN([C@H]3CCC(=O)NC3=O)C4=O)CC2)c(F)cc1[C@@H]1c2ccc(O)cc2CC[C@@H]1c1ccccc1` when you can. 50 to 75%

Dear colleague, please send me the reported Dmax for `COc1cc(N2CCC(CCN3CCC4(CC3)COc3cc5c(cc34)CN([C@H]3CCC(=O)NC3=O)C5=O)CC2)c(F)cc1[C@@H]1c2ccc(O)cc2CC[C@@H]1c1ccccc1` when you can. > 75%

Dear colleague, please send me the reported Dmax for O=C1CC[C@H](N2Cc3cc4c(cc3C2=O)OCC42CCN(CC3CC4(CCN(c5cnc(C6c7ccc(O)cc7CCC6c6ccccc6)cn5)CC4)C3)CC2)C(=O)N1 (stereo partly shown) when you can. 50 to 75%

Dear colleague, please send me the reported Dmax for `COc1cc(N2CC3(CCC(CN4CCC5(CC4)COc4c5ccc5c4CN([C@H]4CCC(=O)NC4=O)C5=O)CC3)C2)c(F)cc1[C@H]1c2ccc(O)cc2CC[C@H]1c1ccccc1` when you can. 50 to 75%

Dear colleague, please send me the reported Dmax for `COc1c([C@@H]2c3ccc(O)cc3CC[C@@H]2c2ccccc2)ccc(N2CCC(CN3CCC4(CC3)COc3cc5c(cc34)CN([C@H]3CCC(=O)NC3=O)C5=O)CC2)c1F` when you can. 50 to 75%

----------
EXPERIMENTAL_SYSTEM: ER in MCF-7 cells (Homo sapiens (Human), UniProt P03372)
PROTOCOL_TEXT: In-cell Western (ICW) ER degradation assay in MCF-7 cells
Format: cell-based
TEST_SETTINGS: MCF-7, ER degradation, 16 hrs treatment; read-out: MCF7 DC50
Please go through the items and note down their DC50.

Dear colleague, please send me the reported DC50 for O=C1CC[C@@H](Nc2ccc(C3CCN(C[C@@H]4COC5(CCN(c6ccc([C@@H]7c8ccc(O)cc8CC[C@@H]7c7ccccc7)cc6)CC5)C4)CC3)c(F)c2)C(=O)N1 (single isomer, unassigned) [Compound A62] when you can. 10 to 100 nM

Dear colleague, please send me the reported DC50 for O=C1CC[C@H](NC(=O)c2ccc3c(n2)OC[C@H]2CN(CC4CCC5(CC4)CN(c4ccc([C@@H]6c7ccc(O)cc7CC[C@@H]6c6ccccc6)cn4)C5)CCN32)C(=O)N1 (single isomer, unassigned) [Compound A127] when you can. 1 to 10 nM

Dear colleague, please send me the reported DC50 for COc1cc(N2CCC(CN3CCN4c5cc6c(cc5OC[C@@H]4C3)C(=O)N([C@H]3CCC(=O)NC3=O)C6)CC2)ccc1[C@H]1c2ccc(O)cc2CC[C@H]1c1ccccc1 (single isomer, unassigned) [Compound A21] when you can. 10 to 100 nM

Dear colleague, please send me the reported DC50 for COc1cc(N2CCC(CN3CCN4c5ccc6c(c5OCC4C3)CN([C@H]3CCC(=O)NC3=O)C6=O)CC2)c(F)cc1[C@@H]1c2ccc(O)cc2CC[C@@H]1c1ccccc1 (stereo in doubt) [Compound A35] when you can. < 1 nM

Dear colleague, please send me the reported DC50 for COc1cc(N2CCC3(CC2)C[C@H](CN2CCC4(CC2)COc2c4ccc4c2CN([C@H]2CCC(=O)NC2=O)C4=O)CO3)c(F)cc1[C@@H]1c2ccc(O)cc2CC[C@@H]1c1ccccc1 [Compound A176] when you can. < 1 nM

Dear colleague, please send me the reported DC50 for COc1cc(N2CCC3(CC2)CC(CN2CCN4c5ccc(C(=O)N[C@H]6CCC(=O)NC6=O)nc5OC[C@H]4C2)C3)c(F)cc1[C@@H]1c2ccc(O)cc2CC[C@@H]1c1ccccc1 [Compound A111] when you can. 1 to 10 nM

Dear colleague, please send me the reported DC50 for COc1c([C@@H]2c3ccc(O)cc3CC[C@@H]2c2ccccc2)ccc(N2CCC3(CC2)CC(CN2CCC4(CC2)COc2cc5c(cc24)CN([C@H]2CCC(=O)NC2=O)C5=O)C3)c1F [Compound A199] when you can. < 1 nM

Dear colleague, please send me the reported DC50 for O=C1CC[C@H](NC(=O)c2ccc3c(n2)OC[C@H]2CN(CC4CCN(c5ccc([C@@H]6c7ccc(O)cc7CC[C@@H]6c6ccccc6)cc5)CC4)CCN32)C(=O)N1 (single isomer, unassigned) [Compound A6] when you can. < 1 nM

Dear colleague, please send me the reported DC50 for O=C1CC[C@H](Nc2ccc(C3CCN(C[C@H]4COC5(CCN(c6ccc([C@@H]7c8ccc(O)cc8CC[C@@H]7c7ccccc7)cc6)CC5)C4)CC3)cc2)C(=O)N1 (single isomer, unassigned) [Compound A27] when you can. 10 to 100 nM
